Where these numbers come from: the supplement of paper PMC11865577

Some sequences, each annotated with its measured pull-down binding Z-score.
System: TO-N3 (biotin conjugate)
Test: pull-down binding Z-score (relative to library population); higher = stronger binding
Settings: RNA library: Library-2
Output spec: single numeric token, no unit.

As a guide, the following entries are already answered.
{"Seq text": "AUGUGAUGUCACUGAGGAAAUCACAC [hsa-mir-216b]", "Assay system": "TO-N3 (biotin conjugate)", "Measure": "pull-down binding Z-score", "Readout value": -0.124}
{"Seq text": "CCUGCUGUGUGAAACAAAAGUAAG [hsa-mir-302c]", "Assay system": "TO-N3 (biotin conjugate)", "Measure": "pull-down binding Z-score", "Readout value": 0.103}
{"Seq text": "GGGAUGAGCCCUGGCUCUGUUUCCUAG [hsa-mir-378h]", "Assay system": "TO-N3 (biotin conjugate)", "Measure": "pull-down binding Z-score", "Readout value": 0.385}
{"Seq text": "AACACCAGUUUACUCAUUCUUACCUGGUGUU", "Assay system": "TO-N3 (biotin conjugate)", "Measure": "pull-down binding Z-score", "Readout value": -0.829}
{"Seq text": "UAGAGGGUAAAAUUAAUAACCUUCUA [hsa-mir-628]", "Assay system": "TO-N3 (biotin conjugate)", "Measure": "pull-down binding Z-score", "Readout value": -0.152}

## Input Bench note: what pull-down binding Z-score did GGAGCCUUCCCCAGAGGAGUCAGGCC [hsa-mir-4312] show?
## Output 0.698
